system: K4 kissing-loop RNA reporter; assay: apparent KD of K4 kissing-loop reporter; higher = weaker reporter binding; details: Eterna round: R107; input ligand: theophylline 20 uM;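 note: bound reporter read as fluorescence of individual clusters on recovered sequencing chips by microscopy, with normalized cluster intensities fitted with a binding model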
Exercise: for every item that follows, state its recorded apparent KD of K4 kissing-loop reporter.
Include the unit after the number when you answer.

Below, 4 sequences whose answers are already recorded.
| RESIDUE SEQUENCE | apparent KD of K4 kissing-loop reporter |
| --- | --- |
| UGUACCGAGGCAGGAUAUGUCGUCGAAAGACGAAAUGGAGUGAUGUUCCUUAAACUGCGAAAGCAGACAGAAGGGUCUUGGUACU [FmnBS 29 G10+U76] | 0.167 µM |
| GUGUGUGUCGGAGGAUAUGCGGUGGGUGUGGGCGGAUUAGUGAUGUUGGUUGUGGUGGUGGUGGGUGUAGAAGGUUGGUGUGUGU [RHig 3/7 C] | 0.4 µM |
| AAAACGCUGUGAAUAACACAGCGAAAUUCGCGAGGACCGGUACGGCCGCCACUCGCUAACUGCGAGUGAUGUUCGAUAAUAAAAU [Mat - Mod of OpenEnded 3 - D3] | 0.161 µM |
| GGUGUUGUUUGUGCCGUUUUCCUCGUUCCUCGAGGACCGGUACGGCCGCCACUCGAGUGAUGUUUGGGUAGCGAUCCCUGUUAGU [Bdazzled - #9 Exc. Tryptophan A] | 0.802 µM |

Then there is this sequence:
## Task Tell me its apparent KD of K4 kissing-loop reporter given CGCGCGCGCUUGAGAGGGCGCGCGCGAAGUGAGGAUAUUUAGGGAGAAAGAAGGCACUAUAAAAUAUAGUGAUGUUAUAUAAGGG [SSFMNA.E] as the entry.
## Result 2.79 µM
